# Tested on: ATP;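 also: ATP exposure 15 min at 22 °C before imaging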
# Experimental Details: switch fluorescence ratio, 500 uM ATP over buffer (Cy3 cluster intensity, sum of 5 cycles each) (fold (ratio)); higher = stronger signal-on switching upon ATP binding; sequences stand for … in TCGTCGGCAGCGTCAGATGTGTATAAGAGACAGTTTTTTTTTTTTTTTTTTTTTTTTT…TC
# Details: aptamer strand: ATP DNA aptamer (quencher-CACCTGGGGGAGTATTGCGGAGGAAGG + anchor), 100 nM annealed; ATP concentration: 500 uM
Quantity Measured: switch fluorescence ratio

| Monomer Sequence | Quantity Measured | Number |
| --- | --- | --- |
| TGAAGGTAAC | switch fluorescence ratio | 0.98 |
| GGGGTTAATA | switch fluorescence ratio | 1 |
| TCTGTCCTTT | switch fluorescence ratio | 0.971 |
| GTGGGGGCAT | switch fluorescence ratio | 1 |
| TTTTTTGATC | switch fluorescence ratio | 0.999 |
| GGGTAGCTAT | switch fluorescence ratio | 0.974 |
| CTCGGAGAGG | switch fluorescence ratio | 0.987 |
| ATTCTGTTAG | switch fluorescence ratio | 0.993 |
| TTTATTGTGG | switch fluorescence ratio | 0.993 |
| CAAGGTCAGA | switch fluorescence ratio | 1.02 |
| TAAAAAGAAA | switch fluorescence ratio | 0.983 |
| CGAGACTTAT | switch fluorescence ratio | 0.996 |
| CGATGGAGGA | switch fluorescence ratio | 0.99 |
| GATTTGTGCA | switch fluorescence ratio | 0.995 |
| CGTCTGTCTG | switch fluorescence ratio | 0.976 |
| AAATTATTTT | switch fluorescence ratio | 0.999 |
| TGGGTGTCCA | switch fluorescence ratio | 1 |
| AAAATTATTG | switch fluorescence ratio | 1 |
| CTGAATTAAG | switch fluorescence ratio | 0.99 |
| AATATGGCGT | switch fluorescence ratio | 1.01 |
| GTCTTGACGA | switch fluorescence ratio | 0.996 |
| ATGAACAGGG | switch fluorescence ratio | 1.01 |
| ACTAAAAAAA | switch fluorescence ratio | 0.991 |
| ATTATATAAT | switch fluorescence ratio | 1.01 |
| GGTGACAAAT | switch fluorescence ratio | 0.978 |
| TAGGATGTAT | switch fluorescence ratio | 0.986 |

###

# Tested on: ATP;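 also: ATP exposure 15 min at 22 °C before imaging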
# Experimental Details: switch fluorescence ratio, 500 uM ATP over buffer (Cy3 cluster intensity, sum of 5 cycles each) (fold (ratio)); higher = stronger signal-on switching upon ATP binding; sequences stand for … in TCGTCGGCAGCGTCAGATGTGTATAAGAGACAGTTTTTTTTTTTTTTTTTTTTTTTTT…TC
# Details: aptamer strand: ATP DNA aptamer (quencher-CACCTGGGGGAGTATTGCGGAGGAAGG + anchor), 100 nM annealed; ATP concentration: 500 uM

| Monomer Sequence | switch fluorescence ratio |
| --- | --- |
| TTAGTCTGTT | 0.99 |
| GGTCGTGCGC | 0.996 |
| GTTGAACTTT | 1.02 |
| GGAATTTTTT | 0.989 |
| AGTTTGAAGG | 0.989 |
| TCGTTGGCGG | 0.951 |
| AGAGTTTTTT | 0.998 |
| CTGTATTAGT | 1.02 |
| TGGTCCAGG | 1.15 |
| TCAAGGATGT | 1 |
| AAGGCTGGCT | 0.99 |
